For each entry below, report its koff value.
Biological target: T1, Len(1-22) monomer peptide (Homo sapiens (Human), UniProt P06312 21-42)
T1 construct: Analyte in SPR; on beads in the pulldown assay; also called Vκ4(LEN(1-22) beads)
T1 peptide: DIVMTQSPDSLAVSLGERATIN
Assay: SPR, antibody as ligand, peptide as analyte
Give bare numbers, in s⁻¹.

Solved entries (count: 2):
[[record]]
binder = "VH9-M64V + VL4 (antibody, V domains shown, Humanized 11-1F4 variant) VH: QVQLQESGPGLVKPSETLSLTCTVSGFSLSSYGVSWIRQPPGKGLEWLGVIWGDGSTNYHPNLVSRVTISVDTSKSQVLFKLSSVTAADTAVYYCATLDYWGQGTSVTVSS VL: DVVMTQSPLSLPVTLGQPASISCRSSQSLVHRNGNTYLHWFQQRPGQSPRLLIYKVSNRFSGVPDRFSGSGSGTDFTLKISRVEAEDVGVYFCFQTTYVPNTFGGGTKLEIK"
measurename = "koff"
unittag = "s⁻¹"
measuredvalue = 0.00052

[[record]]
binder = "VH9-D54A + VL4 (antibody, V domains shown, Humanized 11-1F4 variant) VH: QVQLQESGPGLVKPSETLSLTCTVSGFSLSSYGVSWIRQPPGKGLEWLGVIWGAGSTNYHPNLMSRVTISVDTSKSQVLFKLSSVTAADTAVYYCATLDYWGQGTSVTVSS VL: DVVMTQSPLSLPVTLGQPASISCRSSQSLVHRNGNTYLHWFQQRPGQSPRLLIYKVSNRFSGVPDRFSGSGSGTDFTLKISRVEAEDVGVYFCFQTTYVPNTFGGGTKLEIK"
measurename = "koff"
unittag = "s⁻¹"
measuredvalue = 0.000778


Now for a further binder.
Request: Supply measured koff of VH9 + VL4-N33Q (antibody, V domains shown, Humanized 11-1F4 variant) VH: QVQLQESGPGLVKPSETLSLTCTVSGFSLSSYGVSWIRQPPGKGLEWLGVIWGDGSTNYHPNLMSRVTISVDTSKSQVLFKLSSVTAADTAVYYCATLDYWGQGTSVTVSS VL: DVVMTQSPLSLPVTLGQPASISCRSSQSLVHRQGNTYLHWFQQRPGQSPRLLIYKVSNRFSGVPDRFSGSGSGTDFTLKISRVEAEDVGVYFCFQTTYVPNTFGGGTKLEIK in your reply.
Result: 0.00104
